# System: FHs-74Int cells
# Run description: AlamarBlue cell viability assay, non-cancerous intestine FHs-74Int cells
# Recorded conditions: read-out: Human Cell Viability CC50 Intestine (FHs 74Int); non-cancerous intestine cells, AlamarBlue, 48 h
Observable: CC50
Answer format: value, then unit.

Briefly, CC50 measured for COc1ccc(C(=O)N/N=C/c2ccc(O)c3ncccc23)cc1 [Compound 18] : 55 µM

====

# Run description: AlamarBlue cell viability assay, non-cancerous colon FHC cells
# Recorded conditions: human, FHC non-cancerous colon cells, Human Cell Viability CC50 Colon (FHC), non-cancerous colon cells, AlamarBlue, 48 h
What CC50 at 48 h was measured for each of the following?

Briefly, CC50 at 48 h measured for O=C(N/N=C/c1ccc([N+](=O)[O-])o1)c1ccc(NS(=O)(=O)c2ccc(Br)cc2)cc1 : > 100 µM

Briefly, CC50 at 48 h measured for CCN(CC)S(=O)(=O)c1cccc(C(=O)N/N=C/c2ccc([N+](=O)[O-])o2)c1 : > 100 µM

Briefly, CC50 at 48 h measured for O=C(N/N=C/c1ccc(O)c2ncccc12)c1cccs1 : 85 µM

Briefly, CC50 at 48 h measured for O=C(N/N=C/c1ccc(O)c2ncccc12)c1ccncc1 : > 100 µM

Briefly, CC50 at 48 h measured for COc1ccc(C(=O)N/N=C/c2ccc([N+](=O)[O-])o2)cc1 : > 100 µM

====

# Run description: AlamarBlue cell viability assay, non-cancerous intestine FHs-74Int cells
# Recorded conditions: human, FHs-74Int non-cancerous intestine cells, Human Cell Viability CC50 Intestine (FHs 74Int), non-cancerous intestine cells, AlamarBlue, 48 h
Observable: CC50 at 48 h (µM)
API: value field is a number in µM; no unit string.

Briefly, CC50 at 48 h measured for CN(C)c1ccc(C(=O)N/N=C/c2ccc(O)c3ncccc23)cc1 : 42

Briefly, CC50 at 48 h measured for O=C(N/N=C/c1ccc(O)c2ncccc12)c1ccncc1 : 69

Briefly, CC50 at 48 h measured for Oc1cccc(C(Nc2nccs2)c2ccc3cccnc3c2O)c1 (centres unmarked) : 64.6

Briefly, CC50 at 48 h measured for CCN(CC)S(=O)(=O)c1cccc(C(=O)N/N=C/c2ccc([N+](=O)[O-])o2)c1 : 8.7

Briefly, CC50 at 48 h measured for COc1cc(NC(C)CCCN)c2ncccc2c1 (centres unmarked) [Compound 71, Primaquine, reference compound] : 56.6

Briefly, CC50 at 48 h measured for CCN(CC)S(=O)(=O)c1cccc(C(=O)N/N=C/c2ccc(O)c3ncccc23)c1 : 59

Briefly, CC50 at 48 h measured for O=C(N/N=C/c1ccc(O)c2ncccc12)c1ccc(NS(=O)(=O)c2cccs2)cc1 : 6.1

Briefly, CC50 at 48 h measured for O=C(N/N=C/c1ccc([N+](=O)[O-])o1)c1ccncc1 : 75

Briefly, CC50 at 48 h measured for O=C(N/N=C/c1ccc(O)c2ncccc12)c1ccc(O)cc1 : 56

Briefly, CC50 at 48 h measured for O=C(/C=C/c1cccc([N+](=O)[O-])c1)c1ccc(NC(=O)c2ccco2)cc1 : 54

====

# Run description: AlamarBlue cell viability assay, non-cancerous intestine FHs-74Int cells
# Recorded conditions: human, FHs-74Int non-cancerous intestine cells, Human Cell Viability CC50 Intestine (FHs 74Int), non-cancerous intestine cells, AlamarBlue, 48 h
What CC50 at 48 h was measured for each of the following?

Briefly, CC50 at 48 h measured for CC1CS(=O)(=O)CCN1/N=C/c1ccc([N+](=O)[O-])o1 (stereo not drawn) [Nifurtimox (Nfx - 106), Nifurtimox, reference compound] : > 100 µM

Briefly, CC50 at 48 h measured for CC(C)n1c(/C=C/C(O)CC(O)CC(=O)O)c(-c2ccc(F)cc2)c2ccccc21 (stereo not drawn) [Compound 82, Fluvastatin sodium, reference compound] : > 100 µM

Briefly, CC50 at 48 h measured for COc1ccc(C(=O)N/N=C/c2ccco2)cc1 : > 100 µM
